- testTarget: ZFP SBS#387 (synthetic)
- Sequence (chain, as listed by the source): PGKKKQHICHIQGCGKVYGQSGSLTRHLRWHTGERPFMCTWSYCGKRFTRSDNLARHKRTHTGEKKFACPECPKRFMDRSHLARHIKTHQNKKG
- assayMethodText: EMSA
- reportedConditions: tags: MBP fusion
pKd: −log10 of the molar value.

# binder, pKd
data = [
    ("GGCGAGGCAA (dsDNA) DNA 1: GGCGAGGCAA DNA 2: TTGCCTCGCC", 8.60),
]
